- Study System: human μ-opioid receptor, OPRM (Homo sapiens)
- Construct: host or cells: HEK-293 overexpressing β-arrestin2 fused to a β-galactosidase fragment
- Sequence (P35372 whole entry, the tested form may be a part): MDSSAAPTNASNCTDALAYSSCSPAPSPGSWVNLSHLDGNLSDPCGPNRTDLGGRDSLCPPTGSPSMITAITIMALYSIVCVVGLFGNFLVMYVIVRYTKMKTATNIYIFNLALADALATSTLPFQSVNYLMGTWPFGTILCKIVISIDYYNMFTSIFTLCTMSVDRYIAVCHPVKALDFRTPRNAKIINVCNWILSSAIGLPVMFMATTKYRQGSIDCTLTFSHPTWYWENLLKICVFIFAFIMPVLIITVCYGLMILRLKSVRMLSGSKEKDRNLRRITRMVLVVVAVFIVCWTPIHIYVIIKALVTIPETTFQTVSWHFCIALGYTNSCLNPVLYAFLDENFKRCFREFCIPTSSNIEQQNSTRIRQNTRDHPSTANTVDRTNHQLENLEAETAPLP
- Experimental Protocol: Dominant assay: cAMP assay with/without irreversible antagonist β-FNA, OPRM cell line
- Type: cell-based
- Condition Label: addition of β-FNA; repeated dominant assay, Example 4, Tables 8-10; read-out: OPRM Gi β-FNA (+) EC50
# strict inequality: EC50 < 8 µM yields 1.0, everything else yields 0.0

INSERT INTO results (molecule, study_system, group_label) VALUES
  ('CN1CCc2cc(C(CNC(=O)Nc3ccc(F)cc3)N(C)C)ccc21 (single isomer, unassigned) [Compound 7]', 'human μ-opioid receptor, OPRM (Homo sapiens)', 1.0),
  ('CN(C)C(CNC(=O)Cc1ccc2c(c1)OCCO2)c1ccccc1 (single isomer, unassigned) [Compound 4]', 'human μ-opioid receptor, OPRM (Homo sapiens)', 0.0),
  ('CN1CCc2cc(C(CNC(=O)Nc3ccc(F)cc3)N(C)C)ccc21 (single isomer, unassigned) [Compound 6]', 'human μ-opioid receptor, OPRM (Homo sapiens)', 0.0),
  ('Cc1ccccc1NC(=O)NCC(c1ccc2c(c1)CCO2)N(C)C (racemic) [Compound 3]', 'human μ-opioid receptor, OPRM (Homo sapiens)', 1.0);
